Experiment: CHI Log D procedure
Type: physicochemical
Conditions: pH 7.4
Rule: measured CHI Log D below 2 gets criterion met; anything equal to or greater than 2 gets criterion not met.

Does CC(=O)N1CCC[C@]12CC=CCCCC1(CCCC=CCCCCOC(=O)N3CC[C@@](C(=O)N[C@@H](Cc4ccsc4)C(=O)N[C@@H](Cc4csc5ccccc45)C(=O)N[C@@H](Cc4c[nH]cn4)C(=O)N[C@H](C)C(N)=O)(C3)NC(=O)[C@H](CC(N)=O)NC(=O)[C@H](Cc3ccccc3)NC(=O)[C@H](C)NC(=O)[C@H](C)NC(=O)[C@H](CC(=O)O)NC(=O)[C@H](CC(=O)O)NC1=O)NC(=O)[C@H](CC(C)(C)C)NC(=O)[C@H](CC(=O)O)NC2=O (some centres unmarked) [I-832] have CHI Log D strictly under 2?
criterion not met

Does CC[C@H](C)[C@@H]1NC(=O)[C@H](CC(=O)O)NC(=O)[C@]2(CC=CCCCC3(CCCC=CCCCCCC[C@@](C)(C(=O)N[C@@H](Cc4ccccc4)C(=O)N[C@@H](Cc4csc5ccccc45)C(=O)N[C@@H](CCC(N)=O)C(N)=O)NC(=O)[C@H](CCC(N)=O)NC(=O)[C@H](Cc4ccccc4)NC(=O)[C@H](C)NC(=O)[C@H](CO)NC(=O)[C@H](CCC(=O)O)NC(=O)[C@H](CC(=O)O)NC3=O)NC1=O)CCCN2C(C)=O (some centres unmarked) [I-651] have CHI Log D strictly under 2?
criterion not met
